# study target: CYP2D6 (Homo sapiens, UniProt P10635)
# Sequence (P10635 whole entry): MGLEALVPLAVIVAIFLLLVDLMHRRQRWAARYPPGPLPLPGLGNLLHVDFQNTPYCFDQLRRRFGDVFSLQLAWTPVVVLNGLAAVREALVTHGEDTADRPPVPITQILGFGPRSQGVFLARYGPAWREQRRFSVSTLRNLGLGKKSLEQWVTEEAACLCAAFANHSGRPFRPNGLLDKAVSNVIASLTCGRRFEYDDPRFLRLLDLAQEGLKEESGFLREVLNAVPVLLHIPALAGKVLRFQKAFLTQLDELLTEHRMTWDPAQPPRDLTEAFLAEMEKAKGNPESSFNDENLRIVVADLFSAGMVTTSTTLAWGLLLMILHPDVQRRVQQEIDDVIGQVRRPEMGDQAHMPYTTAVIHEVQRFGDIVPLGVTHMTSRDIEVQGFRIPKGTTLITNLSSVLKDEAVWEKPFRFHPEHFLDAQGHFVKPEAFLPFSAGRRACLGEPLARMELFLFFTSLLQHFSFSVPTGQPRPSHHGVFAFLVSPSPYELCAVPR
# assay remarks: in vitro
# Description: Inhibition of CYP2D6 (unknown origin) assessed as residual activity at 10 uM relative to control
endpoint: activity at 10 µM

> print(dat)
                               smiles.input           endpoint  reported.measurement
1  CN(c1ncnc2[nH]ccc12)[C@@H]1CCN(C(=O)CC#N)C1  activity at 10 µM                > 100%

----------
# assay remarks: in vivo
# measurement parameters: Sprague-Dawley, rat, po, 10 mg/kg
endpoint: AUC(0-t) (ng·h/mL)

> print(dat)
                               smiles.input  endpoint  reported.measurement
1  CN(c1ncnc2[nH]ccc12)[C@@H]1CCN(C(=O)CC#N)C1  AUC(0-t)                  4100

----------
# assay remarks: in vivo
# measurement parameters: Sprague-Dawley, rat, po, 10 mg/kg
# Description: MRT in Sprague-Dawley rat at 10 mg/kg, po by LC-MS/MS analysis
endpoint: MRT (h)

> print(dat)
                               smiles.input  endpoint  unit.string  reported.measurement
1  CN(c1ncnc2[nH]ccc12)[C@@H]1CCN(C(=O)CC#N)C1       MRT            h                   2.9

----------
# assay remarks: in vivo
# measurement parameters: beagle, dog, iv, 3 mg/kg
endpoint: AUC(0-inf) (ng·h/mL)

> print(dat)
                               smiles.input  reported.measurement
1  CN(c1ncnc2[nH]ccc12)[C@@H]1CCN(C(=O)CC#N)C1                  2200

----------
# study target: CYP2C19 (Homo sapiens)
# Sequence (P33261 whole entry): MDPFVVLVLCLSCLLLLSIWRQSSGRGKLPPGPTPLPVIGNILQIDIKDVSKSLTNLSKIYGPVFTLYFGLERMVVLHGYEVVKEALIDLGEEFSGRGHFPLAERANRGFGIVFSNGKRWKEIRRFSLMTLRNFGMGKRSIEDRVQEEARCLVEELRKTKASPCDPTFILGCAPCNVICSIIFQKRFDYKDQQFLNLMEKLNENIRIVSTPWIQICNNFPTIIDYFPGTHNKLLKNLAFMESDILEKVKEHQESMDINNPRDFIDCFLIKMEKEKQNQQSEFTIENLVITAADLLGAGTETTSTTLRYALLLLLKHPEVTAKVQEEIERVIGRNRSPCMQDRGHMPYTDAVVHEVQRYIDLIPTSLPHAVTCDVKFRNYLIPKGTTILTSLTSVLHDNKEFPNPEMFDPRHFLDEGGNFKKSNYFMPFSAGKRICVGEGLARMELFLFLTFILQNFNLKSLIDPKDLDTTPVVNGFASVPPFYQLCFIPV
# assay remarks: in vitro
# Description: Inhibition of CYP2C19 (unknown origin) assessed as residual activity at 10 uM relative to control
endpoint: activity at 10 µM (%)

> print(dat)
                               smiles.input            study.target  reported.measurement
1  CN(c1ncnc2[nH]ccc12)[C@@H]1CCN(C(=O)CC#N)C1  CYP2C19 (Homo sapiens)                  91.8

----------
# assay remarks: in vitro
# measurement parameters: rat, plasma
# Description: Protein binding in rat plasma
endpoint: fraction unbound

> print(dat)
                               smiles.input          endpoint  reported.measurement
1  CN(c1ncnc2[nH]ccc12)[C@@H]1CCN(C(=O)CC#N)C1  fraction unbound                 0.823

----------
# assay remarks: in vitro
# measurement parameters: human, plasma
# Description: Protein binding in human plasma
endpoint: fraction unbound

> print(dat)
                               smiles.input          endpoint  reported.measurement
1  CN(c1ncnc2[nH]ccc12)[C@@H]1CCN(C(=O)CC#N)C1  fraction unbound                 0.853

----------
# assay remarks: in vivo
# measurement parameters: ICR, mouse, po, 10 mg/kg
# Description: MRT in ICR mouse at 10 mg/kg, po by LC-MS/MS analysis
endpoint: MRT (h)

> print(dat)
                               smiles.input  reported.measurement
1  CN(c1ncnc2[nH]ccc12)[C@@H]1CCN(C(=O)CC#N)C1                   3.1

----------
The following compounds have recorded IC50 on UniProt:P23458.
Sequence (P23458 whole entry): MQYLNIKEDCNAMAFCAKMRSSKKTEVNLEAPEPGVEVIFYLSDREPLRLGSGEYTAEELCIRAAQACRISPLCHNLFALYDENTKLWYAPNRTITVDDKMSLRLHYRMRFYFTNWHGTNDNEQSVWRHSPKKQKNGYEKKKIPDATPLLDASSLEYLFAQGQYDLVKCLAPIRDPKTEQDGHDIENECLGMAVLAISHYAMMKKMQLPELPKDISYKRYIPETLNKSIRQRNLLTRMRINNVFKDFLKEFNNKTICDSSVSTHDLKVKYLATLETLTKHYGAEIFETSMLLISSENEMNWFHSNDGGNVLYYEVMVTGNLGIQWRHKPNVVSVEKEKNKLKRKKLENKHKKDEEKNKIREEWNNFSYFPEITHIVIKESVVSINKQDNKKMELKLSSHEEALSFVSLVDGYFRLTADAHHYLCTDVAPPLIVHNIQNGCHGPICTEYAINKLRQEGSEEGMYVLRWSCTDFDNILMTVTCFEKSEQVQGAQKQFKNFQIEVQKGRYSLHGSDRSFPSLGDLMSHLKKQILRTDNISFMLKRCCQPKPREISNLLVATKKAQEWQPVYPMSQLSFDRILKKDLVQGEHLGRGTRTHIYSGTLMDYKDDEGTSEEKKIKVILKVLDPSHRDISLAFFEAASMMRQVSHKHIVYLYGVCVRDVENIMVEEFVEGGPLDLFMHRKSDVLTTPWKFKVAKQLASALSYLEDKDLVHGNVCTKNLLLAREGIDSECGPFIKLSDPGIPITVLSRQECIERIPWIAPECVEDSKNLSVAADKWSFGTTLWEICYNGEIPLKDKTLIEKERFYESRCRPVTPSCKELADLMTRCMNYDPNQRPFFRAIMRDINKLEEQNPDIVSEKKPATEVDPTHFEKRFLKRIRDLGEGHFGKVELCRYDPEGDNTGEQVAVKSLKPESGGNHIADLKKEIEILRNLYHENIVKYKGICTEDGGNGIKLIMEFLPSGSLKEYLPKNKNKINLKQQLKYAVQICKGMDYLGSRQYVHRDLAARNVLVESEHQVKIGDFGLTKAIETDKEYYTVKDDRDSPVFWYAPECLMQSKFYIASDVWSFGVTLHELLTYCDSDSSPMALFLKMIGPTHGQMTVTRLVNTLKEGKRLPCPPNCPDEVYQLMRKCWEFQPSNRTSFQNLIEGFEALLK
endpoint: IC50 (nM)

> print(dat)
                               smiles.input  reported.measurement
1  CCCS(=O)(=O)N1CC[C@@H](N(C)c2ncnc3[nH]ccc23)C1                    34
2  CN(c1ncnc2[nH]ccc12)[C@@H]1CCN(S(=O)(=O)c2ccc(C#N)cc2)C1                    11
3  CN(c1ncnc2[nH]ccc12)[C@@H]1CCN(S(=O)(=O)c2cn(C)cn2)C1                   650
4  CN(c1ncnc2[nH]ccc12)[C@@H]1CCN(S(=O)(=O)c2ccc3ccccc3c2)C1                    13
